# test-details: recombinant UMI read abundance after kanamycin selection (control-corrected) (log10(CPM+1)); higher = more efficient recombination; extreme values may be limits of the assay; sequences stand for … in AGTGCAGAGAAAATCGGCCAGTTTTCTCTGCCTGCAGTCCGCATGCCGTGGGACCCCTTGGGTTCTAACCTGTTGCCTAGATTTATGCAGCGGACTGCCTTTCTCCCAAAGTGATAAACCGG…AGGTTGGTTTCACT; site = the 11-nt donor;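 also: IS621 bridge recombinase in Escherichia coli cells against a fixed T5 target plasmid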
property-measured: recombinant UMI read abundance (log10)
Hey, just send me the number, nothing else.

Enquiry: Could you share which recombinant UMI read abundance (log10) value was measured for TGCGGACCATGGACCGGTTTTCCCGGTAATCCGTATTTGCT (site TGCGGACCTAG) ?
Return: 0.00621

Enquiry: Could you share which recombinant UMI read abundance (log10) value was measured for GGGGCACCATGGACCGGTTTTCCCGGTAATCCGTATTTGCG (site GGGGCACCTCG) ?
Return: 0.0566

Enquiry: Could you share which recombinant UMI read abundance (log10) value was measured for AACTCCTCATGGACCGGTTTTCCCGGTAATCCGTATTTGCC (site TACTCCTCTGG) ?
Return: 2.61

Enquiry: Could you share which recombinant UMI read abundance (log10) value was measured for GTATCCACATGGACCGGTTTTCCCGGTAATCCGTATTTGTA (site GTATACACTTA) ?
Return: 0.926

Enquiry: Could you share which recombinant UMI read abundance (log10) value was measured for CGGGATCCATGGACCGGTTTTCCCGGTAATCCGTATTTGAT (site CGGGATCCTAT) ?
Return: 0.898
